Listed next: entries and their corresponding IC50.
targetUnderTest: cdk4/cyclin D1 (Homo sapiens)
Sequence (P11802 whole entry): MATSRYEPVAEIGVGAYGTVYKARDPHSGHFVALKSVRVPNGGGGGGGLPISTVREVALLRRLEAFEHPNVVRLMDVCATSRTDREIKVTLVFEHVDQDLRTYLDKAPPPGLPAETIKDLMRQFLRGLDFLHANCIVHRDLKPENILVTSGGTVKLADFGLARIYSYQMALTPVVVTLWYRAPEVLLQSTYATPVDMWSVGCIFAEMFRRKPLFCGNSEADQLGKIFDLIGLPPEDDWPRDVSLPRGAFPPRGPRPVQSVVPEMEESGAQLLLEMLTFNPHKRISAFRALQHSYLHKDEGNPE
Sequence (P24385 whole entry partner): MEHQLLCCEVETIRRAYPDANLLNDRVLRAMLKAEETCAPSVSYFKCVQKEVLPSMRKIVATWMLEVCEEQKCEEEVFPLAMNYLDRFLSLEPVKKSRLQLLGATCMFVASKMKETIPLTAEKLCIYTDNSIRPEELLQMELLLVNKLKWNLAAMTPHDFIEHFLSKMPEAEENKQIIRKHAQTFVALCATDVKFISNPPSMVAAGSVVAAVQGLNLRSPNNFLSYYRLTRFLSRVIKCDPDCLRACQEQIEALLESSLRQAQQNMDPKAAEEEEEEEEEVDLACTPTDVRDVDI
measurementNotes: Cyclin-dependent kinase assay, cdk4/cyclin D1
Format: biochemical
statedConditions: cyclin D1/cdk4; GST-pRb substrate, 10 µM ATP
Structures can show the parent of a compound that is named as a salt.
Response body: numeric value in µM, unit text excluded.

-- ask Identify measured IC50 corresponding to N[C@H]1CC[C@H](Nc2nc(NC3CCN(S(=O)(=O)c4cccc([N+](=O)[O-])c4)CC3)c3ncn(C4CCCC4)c3n2)CC1 [compound 127, dihydrochloride]
-- reply 0.048

-- ask Identify measured IC50 corresponding to COc1ccccc1NC(=O)N1CCC(Nc2nc(N[C@H]3CC[C@H](N)CC3)nc3c2ncn3C2CCCC2)CC1 [compound 163, dihydrochloride]
-- reply 0.855

-- ask Identify measured IC50 corresponding to CCCCC(=O)N1CCC(Nc2nc(N[C@H]3CC[C@H](N)CC3)nc3c2ncn3C2CCCC2)CC1 [compound 56, dihydrochloride]
-- reply 0.909

-- ask Identify measured IC50 corresponding to CC(C)n1cnc2c(NC3CCN(C(=O)COc4ccccc4)CC3)nc(N[C@H]3CC[C@H](N)CC3)nc21 [compound 80, dihydrochloride]
-- reply 8.1

-- ask Identify measured IC50 corresponding to CC(=O)c1cccc(NC(=O)N2CCC(Nc3nc(N[C@H]4CC[C@H](N)CC4)nc4c3ncn4C3CCCC3)CC2)c1 [compound 189, dihydrochloride]
-- reply 0.066

-- ask Identify measured IC50 corresponding to N[C@H]1CC[C@H](Nc2nc(NC3CCN(C(=O)Nc4ccccc4)CC3)c3ncn(C4CCCC4)c3n2)CC1 [compound 146, dihydrochloride]
-- reply 0.2

###

targetUnderTest: cdk4/cyclin D1 (Homo sapiens)
measurementNotes: Cyclin-dependent kinase assay, cdk4/cyclin D1
Format: biochemical
statedConditions: cyclin D1/cdk4; GST-pRb substrate, 10 µM ATP
Where a name gives a salt, the structure may show the parent alone.
Listed next: entries and their corresponding pIC50.
// field semantics: pIC50 = negative decimal log of concentration (mol/L)

molecule | pIC50
N[C@H]1CC[C@H](Nc2nc(NC3CCN(C(=O)c4cccc(Cl)c4)CC3)c3ncn(C4CCCC4)c3n2)CC1 [compound 72] | 6.06

-- ask Identify measured pIC50 corresponding to CCOC(=O)N1CCC(Nc2nc(N[C@H]3CC[C@H](N)CC3)nc3c2ncn3C2CCCC2)CC1 [compound 93, dihydrochloride]
-- reply 6.07

-- ask Identify measured pIC50 corresponding to N[C@H]1CC[C@H](Nc2nc(NC3CCN(C(=O)C(c4ccccc4)c4ccccc4)CC3)c3ncn(C4CCCC4)c3n2)CC1 [compound 40, dihydrochloride]
-- reply 6.62

-- ask Identify measured pIC50 corresponding to `N[C@H]1CC[C@H](Nc2nc(NC3CCN(C(=O)c4cccnc4)CC3)c3ncn(C4CCCC4)c3n2)CC1`
-- reply 5.50

###

System: HL-60 Human Leukemia
measurementNotes: HL-60 human leukemia xenograft in nude mice
Assay type: in vivo
Set-up: key: tumor volume = ½(a × b²) from caliper diameters, in mm^3
statedConditions: Table 4; dose 1 mg/kg ip
Listed next: entries and their corresponding HL60 Mean Vol. ± SD.

Solved cases below.
molecule | observable | measurement
Cl.Cl.N[C@H]1CC[C@H](Nc2nc(NC3CCN(S(=O)(=O)c4ccc(F)cc4)CC3)c3ncn(C4CCCC4)c3n2)CC1 [compound 106] | HL60 Mean Vol. ± SD | 4271 ± 3851
Cl.Cl.N[C@H]1CC[C@H](Nc2nc(NC3CCN(C(=O)Oc4ccc([N+](=O)[O-])cc4)CC3)c3ncn(C4CCCC4)c3n2)CC1 [compound 89] | HL60 Mean Vol. ± SD | 2444 ± 2291
Cl.Cl.N[C@H]1CC[C@H](Nc2nc(NC3CCN(C(=O)Oc4ccc(Cl)cc4)CC3)c3ncn(C4CCCC4)c3n2)CC1 [compound 88] | HL60 Mean Vol. ± SD | 4415 ± 2740
Cl.Cl.N[C@H]1CC[C@H](Nc2nc(NC3CCN(S(=O)(=O)c4cccc(C(F)(F)F)c4)CC3)c3ncn(C4CCCC4)c3n2)CC1 [compound 112] | HL60 Mean Vol. ± SD | 4170 ± 3111
Cl.Cl.N[C@H]1CC[C@H](Nc2nc(NC3CCN(C(=O)Nc4ccc(C(F)(F)F)cc4)CC3)c3ncn(C4CCCC4)c3n2)CC1 [compound 149] | HL60 Mean Vol. ± SD | 4010 ± 2371

Could you now consider this next molecule?
-- ask Enter measured HL60 Mean Vol. ± SD, system HL-60 Human Leukemia, for the molecule shown: Cl.Cl.N[C@H]1CC[C@H](Nc2nc(NC3CCN(C(=O)Oc4ccc(F)cc4)CC3)c3ncn(C4CCCC4)c3n2)CC1 [compound 87]
-- reply 3718 ± 2715

###

targetUnderTest: cdk1/cyclin B (Homo sapiens)
Sequence (P06493 whole entry): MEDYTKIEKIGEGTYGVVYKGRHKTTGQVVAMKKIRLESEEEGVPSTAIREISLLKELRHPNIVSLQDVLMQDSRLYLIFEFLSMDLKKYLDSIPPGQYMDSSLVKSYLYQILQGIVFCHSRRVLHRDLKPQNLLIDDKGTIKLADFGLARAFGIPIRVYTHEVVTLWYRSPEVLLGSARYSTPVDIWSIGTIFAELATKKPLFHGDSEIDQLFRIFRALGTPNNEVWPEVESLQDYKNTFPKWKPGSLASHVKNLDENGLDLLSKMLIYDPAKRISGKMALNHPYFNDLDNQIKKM
Sequence (P14635 whole entry partner): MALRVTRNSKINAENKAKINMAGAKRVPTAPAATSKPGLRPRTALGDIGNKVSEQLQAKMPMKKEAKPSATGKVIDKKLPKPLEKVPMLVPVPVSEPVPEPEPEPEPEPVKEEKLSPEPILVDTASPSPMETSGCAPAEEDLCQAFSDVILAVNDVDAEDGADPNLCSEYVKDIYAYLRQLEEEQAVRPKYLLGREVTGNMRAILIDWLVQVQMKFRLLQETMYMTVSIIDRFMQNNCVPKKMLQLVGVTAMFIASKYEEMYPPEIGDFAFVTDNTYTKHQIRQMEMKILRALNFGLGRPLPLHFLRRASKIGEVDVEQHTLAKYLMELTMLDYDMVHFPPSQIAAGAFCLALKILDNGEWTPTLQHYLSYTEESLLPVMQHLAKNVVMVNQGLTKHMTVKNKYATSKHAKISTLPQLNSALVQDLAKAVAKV
measurementNotes: Cyclin-dependent kinase assay, cdk1/cyclin B
statedConditions: CDK1 IC50, nM, Histone H1, 10 µM ATP
Where a name gives a salt, the structure may show the parent alone.
observable: IC50 (nM)
Response body: numeric value in nM, unit text excluded.

Solved cases below.
molecule | observable | measurement
CCCCCC(=O)N1CCC(Nc2nc(N[C@H]3CC[C@H](N)CC3)nc3c2ncn3C2CCCC2)CC1 [compound 54, dihydrochloride] | IC50 | 45
N[C@H]1CC[C@H](Nc2nc(NC3CCN(C(=O)c4cccs4)CC3)c3ncn(C4CCCC4)c3n2)CC1 [compound 10, dihydrochloride] | IC50 | 49
N[C@H]1CC[C@H](Nc2nc(NC3CCN(C(=O)Nc4ccccc4Cl)CC3)c3ncn(C4CCCC4)c3n2)CC1 [compound 169, dihydrochloride] | IC50 | 28
COc1ccc(NC(=O)N2CCC(Nc3nc(N[C@H]4CC[C@H](N)CC4)nc4c3ncn4C3CCCC3)CC2)cc1 [compound 153, dihydrochloride] | IC50 | 20

-- ask Identify measured IC50 corresponding to COc1ccc(C(=O)N2CCC(Nc3nc(N[C@H]4CC[C@H](N)CC4)nc4c3ncn4C3CCCC3)CC2)cc1 [compound 8, dihydrochloride]
-- reply 74

###

targetUnderTest: cdk1/cyclin B (Homo sapiens)
measurementNotes: Cyclin-dependent kinase assay, cdk1/cyclin B
statedConditions: CDK1 IC50, nM, Histone H1, 10 µM ATP
Structures can show the parent of a compound that is named as a salt.
Binary call on IC50 with cut-off 50 nM: strictly below means yes, and equality or higher means no.

compound | labelValue
CC(C)CC(=O)N1CCC(Nc2nc(N[C@H]3CC[C@H](N)CC3)nc3c2ncn3C2CCCC2)CC1 [compound 60, dihydrochloride] | no

-- ask Is 50 nM strictly greater than the compound's reported IC50? compound: Cl.Cl.N[C@H]1CC[C@H](Nc2nc(NC3CCN(C(=O)Oc4ccc([N+](=O)[O-])cc4)CC3)c3ncn(C4CCCC4)c3n2)CC1 [compound 89, dihydrochloride]
-- reply yes

-- ask Is 50 nM strictly greater than the compound's reported IC50? compound: N[C@H]1CC[C@H](Nc2nc(NC3CCN(C(=O)C4CCC4)CC3)c3ncn(C4CCCC4)c3n2)CC1 [compound 63, dihydrochloride]
-- reply yes

-- ask Is 50 nM strictly greater than the compound's reported IC50? compound: CC(=O)Nc1ccc(S(=O)(=O)N2CCC(Nc3nc(N[C@H]4CC[C@H](N)CC4)nc4c3ncn4C3CCCC3)CC2)cc1 [compound 115, dihydrochloride]
-- reply yes

-- ask Is 50 nM strictly greater than the compound's reported IC50? compound: N[C@H]1CC[C@H](Nc2nc(NC3CCN(C(=O)COc4ccccc4)CC3)c3ncn(C4CCCC4)c3n2)CC1 [compound 28, dihydrochloride]
-- reply yes

-- ask Is 50 nM strictly greater than the compound's reported IC50? compound: COCC(=O)N1CCC(Nc2nc(N[C@H]3CC[C@H](N)CC3)nc3c2ncn3C2CCCC2)CC1 [compound 65, dihydrochloride]
-- reply no

-- ask Is 50 nM strictly greater than the compound's reported IC50? compound: N[C@H]1CC[C@H](Nc2nc(NC3CCN(S(=O)(=O)c4c(Cl)cccc4Cl)CC3)c3ncn(C4CCCC4)c3n2)CC1 [compound 121, dihydrochloride]
-- reply no

-- ask Is 50 nM strictly greater than the compound's reported IC50? compound: CCCCOC(=O)N1CCC(Nc2nc(N[C@H]3CC[C@H](N)CC3)nc3c2ncn3C2CCCC2)CC1 [compound 92, dihydrochloride]
-- reply yes

-- ask Is 50 nM strictly greater than the compound's reported IC50? compound: N[C@H]1CC[C@H](Nc2nc(NC3CCN(C(=O)Nc4cc(C(F)(F)F)cc(C(F)(F)F)c4)CC3)c3ncn(C4CCCC4)c3n2)CC1 [compound 176, dihydrochloride]
-- reply yes

-- ask Is 50 nM strictly greater than the compound's reported IC50? compound: COC(=O)c1ccccc1S(=O)(=O)N1CCC(Nc2nc(N[C@H]3CC[C@H](N)CC3)nc3c2ncn3C2CCCC2)CC1.Cl.Cl [compound 111, dihydrochloride]
-- reply yes

-- ask Is 50 nM strictly greater than the compound's reported IC50? compound: N[C@H]1CC[C@H](Nc2nc(NC3CCN(S(=O)(=O)CC(F)(F)F)CC3)c3ncn(C4CCCC4)c3n2)CC1 [compound 133, dihydrochloride]
-- reply no
